- Target Entity: LRRK2 G2019S (Homo sapiens, UniProt Q5S007, G2019S)
- Sequence (Q5S007 whole entry G2019S): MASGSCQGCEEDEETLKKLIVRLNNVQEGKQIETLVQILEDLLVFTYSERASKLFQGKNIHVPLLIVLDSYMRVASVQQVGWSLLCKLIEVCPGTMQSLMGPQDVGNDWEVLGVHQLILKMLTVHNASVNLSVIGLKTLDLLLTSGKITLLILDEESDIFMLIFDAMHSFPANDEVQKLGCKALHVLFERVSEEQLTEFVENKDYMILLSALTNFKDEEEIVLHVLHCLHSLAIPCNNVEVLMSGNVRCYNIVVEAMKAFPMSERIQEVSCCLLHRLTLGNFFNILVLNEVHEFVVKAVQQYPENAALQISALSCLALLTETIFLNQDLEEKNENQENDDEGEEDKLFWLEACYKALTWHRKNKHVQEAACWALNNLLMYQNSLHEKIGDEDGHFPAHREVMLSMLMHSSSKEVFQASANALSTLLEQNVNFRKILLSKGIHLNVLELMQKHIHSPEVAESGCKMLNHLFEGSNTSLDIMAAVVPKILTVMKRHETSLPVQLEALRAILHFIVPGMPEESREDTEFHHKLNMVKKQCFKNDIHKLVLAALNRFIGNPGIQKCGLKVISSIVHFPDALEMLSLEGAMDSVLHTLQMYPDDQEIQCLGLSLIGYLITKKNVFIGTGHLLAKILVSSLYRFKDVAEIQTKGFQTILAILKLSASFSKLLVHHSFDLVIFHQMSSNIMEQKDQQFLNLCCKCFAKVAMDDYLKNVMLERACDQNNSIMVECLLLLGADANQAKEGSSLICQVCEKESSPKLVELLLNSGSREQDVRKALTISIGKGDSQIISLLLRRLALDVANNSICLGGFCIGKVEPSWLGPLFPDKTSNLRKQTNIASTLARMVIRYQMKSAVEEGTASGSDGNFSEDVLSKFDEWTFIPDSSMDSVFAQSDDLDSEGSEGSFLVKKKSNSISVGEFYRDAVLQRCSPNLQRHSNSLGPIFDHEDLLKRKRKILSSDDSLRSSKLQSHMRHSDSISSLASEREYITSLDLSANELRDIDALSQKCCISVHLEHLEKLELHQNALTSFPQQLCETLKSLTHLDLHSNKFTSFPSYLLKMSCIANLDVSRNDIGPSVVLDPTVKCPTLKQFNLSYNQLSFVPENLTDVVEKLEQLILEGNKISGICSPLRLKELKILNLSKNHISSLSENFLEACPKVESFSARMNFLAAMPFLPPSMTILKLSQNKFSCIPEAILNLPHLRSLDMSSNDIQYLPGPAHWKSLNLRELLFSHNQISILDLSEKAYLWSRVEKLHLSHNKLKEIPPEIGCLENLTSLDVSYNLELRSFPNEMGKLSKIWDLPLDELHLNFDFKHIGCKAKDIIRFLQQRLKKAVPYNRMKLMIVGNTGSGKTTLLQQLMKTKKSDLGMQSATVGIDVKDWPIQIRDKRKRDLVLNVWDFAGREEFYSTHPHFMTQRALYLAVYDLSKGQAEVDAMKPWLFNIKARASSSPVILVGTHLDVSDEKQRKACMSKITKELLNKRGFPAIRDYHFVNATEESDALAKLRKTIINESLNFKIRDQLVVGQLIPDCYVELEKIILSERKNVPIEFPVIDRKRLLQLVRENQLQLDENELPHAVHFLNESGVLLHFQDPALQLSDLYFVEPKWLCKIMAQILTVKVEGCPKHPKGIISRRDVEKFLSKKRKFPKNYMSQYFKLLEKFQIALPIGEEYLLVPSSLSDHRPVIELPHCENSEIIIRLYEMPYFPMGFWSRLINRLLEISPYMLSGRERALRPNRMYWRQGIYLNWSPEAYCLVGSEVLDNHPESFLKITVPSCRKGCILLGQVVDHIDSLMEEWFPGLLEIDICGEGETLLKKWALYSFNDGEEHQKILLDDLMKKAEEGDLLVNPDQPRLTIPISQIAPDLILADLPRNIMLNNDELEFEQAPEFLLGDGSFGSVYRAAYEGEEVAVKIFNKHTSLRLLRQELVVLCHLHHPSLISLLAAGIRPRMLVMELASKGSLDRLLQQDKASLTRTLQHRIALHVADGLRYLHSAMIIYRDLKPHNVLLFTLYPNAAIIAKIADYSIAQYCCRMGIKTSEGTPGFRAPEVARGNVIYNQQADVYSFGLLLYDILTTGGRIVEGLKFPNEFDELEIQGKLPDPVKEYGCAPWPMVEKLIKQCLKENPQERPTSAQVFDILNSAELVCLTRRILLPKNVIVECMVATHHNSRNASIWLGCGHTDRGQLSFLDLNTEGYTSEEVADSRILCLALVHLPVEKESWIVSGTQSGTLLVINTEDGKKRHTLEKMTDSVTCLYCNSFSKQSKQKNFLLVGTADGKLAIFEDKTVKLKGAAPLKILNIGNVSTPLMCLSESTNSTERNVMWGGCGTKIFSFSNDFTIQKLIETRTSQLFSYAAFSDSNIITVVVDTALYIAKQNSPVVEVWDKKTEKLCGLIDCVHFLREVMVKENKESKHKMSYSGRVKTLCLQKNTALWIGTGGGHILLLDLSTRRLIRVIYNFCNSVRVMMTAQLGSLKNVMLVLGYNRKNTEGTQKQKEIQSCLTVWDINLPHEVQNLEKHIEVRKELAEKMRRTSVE
- Test Name: LRRK2 Kinase Activity Assay (LanthaScreen TR-FRET), G2019S
- Condition Set: recombinant G2019S-LRRK2, 25 μM ATP, 400 nM LRRKtide, 60 min; class symbols
pIC50: −log10 of the molar value.
Property Measured: pIC50

Some entries whose results are on file:
>>> value("Cc1c(C#N)cnc2c1CC[C@@H]2Oc1ccc2[nH]nc(-c3cnco3)c2c1 (single isomer, unassigned) [Example 107, enantiomer 2]")
"> 7.00"
>>> value("Cc1cncc(-c2n[nH]c3ccc(N[C@H]4CCCc5cc(C#N)ccc54)cc23)c1 (single isomer, unassigned)")
"> 7.00"
>>> value("N#Cc1cnc2c(c1)CCC[C@@H]2Nc1ccc2[nH]nc(-c3ccc[nH]3)c2c1 (single isomer, unassigned) [Example 148, enantiomer 1]")
"> 7.00"
>>> value("COc1n[nH]c2ccc(O[C@H]3CCCc4cc(C#N)c(Cl)nc43)cc12 (single isomer, unassigned) [186, enantiomer 2]")
"6.00 to 7.00"
>>> value("N#Cc1ccc2c(c1)OCC[C@@H]2Nc1ccc2[nH]nc(-c3cnoc3)c2c1 (single isomer, unassigned) [192, enantiomer 1]")
"6.00 to 7.00"
>>> value("N#Cc1ccc2c(c1)CC[C@H]2Oc1ccc2[nH]nc(-c3cnco3)c2n1 (single isomer, unassigned) [Example 31, enantiomer 1]")
"> 7.00"
>>> value("N#Cc1ccc2c(c1)CCC[C@@H]2Nc1ccc2[nH]nc(-c3ccc[nH]3)c2c1 (single isomer, unassigned)")
"> 7.00"
>>> value("C[C@H]1C[C@@H](Nc2ccc3[nH]nc(-c4cnco4)c3c2)c2ccc(C#N)cc21 (single isomer, unassigned) [Example 169, enantiomer 1]")
"> 7.00"

Write down the reported pIC50 of N#Cc1ccc2c(c1)CCC[C@@H]2Nc1ccc2[nH]nc(-c3ccc4[nH]ccc4c3)c2c1 (single isomer, unassigned) , test system: LRRK2 G2019S (Homo sapiens, UniProt Q5S007, G2019S).
> 7.00

Test system LRRK2 G2019S (Homo sapiens, UniProt Q5S007, G2019S); read-out pIC50; what value for COc1cc(-c2n[nH]c3ccc(N[C@H]4CCc5cc(C#N)ccc54)cc23)ccn1 (single isomer, unassigned) [Example 40, enantiomer 1] ?
> 7.00

Reported pIC50 for LRRK2 G2019S (Homo sapiens, UniProt Q5S007, G2019S), given COc1c(C#N)cnc2c1CC[C@@H]2Nc1ccc2[nH]nc(-c3cnco3)c2c1 (single isomer, unassigned) [Example 154, enantiomer 2] ?
> 7.00

Return pIC50 measured with LRRK2 G2019S (Homo sapiens, UniProt Q5S007, G2019S) given this compound: Cc1cc2c(cc1C#N)CCC[C@@H]2Nc1ccc2[nH]nc(-c3cnco3)c2c1 (single isomer, unassigned) [Example 110, enantiomer 1]
> 7.00

---

- Target Entity: LRRK2 G2019S (Homo sapiens, UniProt Q5S007, G2019S)
- Test Name: LRRK2 Kinase Activity Assay (LanthaScreen TR-FRET), G2019S
- Condition Set: recombinant G2019S-LRRK2, 25 μM ATP, 400 nM LRRKtide, 60 min; class symbols
pIC50: −log10 of the molar value.
Property Measured: pIC50

>>> value("COc1n[nH]c2ccc(O[C@H]3CCc4cc(C#N)c(Cl)cc43)cc12 (single isomer, unassigned) [189, enantiomer 1]")
"6.00 to 7.00"
>>> value("Cc1c(C#N)ccc2c1CC[C@@H]2Nc1ccc2[nH]nc(I)c2c1 (single isomer, unassigned) [Example 127, enantiomer 1]")
"6.00 to 7.00"
>>> value("N#Cc1ccc2c(c1)CCC[C@@H]2Nc1ccc2[nH]nc(-c3cnn4c3CCC4)c2c1 (single isomer, unassigned)")
"> 7.00"
>>> value("Cc1n[nH]c2ccc(N[C@H]3CCCc4cc(C#N)ccc43)cc12 (single isomer, unassigned) [Example 43, enantiomer 2]")
"6.00 to 7.00"
>>> value("COc1nc2c(cc1C#N)CCC[C@@H]2Nc1ccc2[nH]nc(-c3cnco3)c2c1 (single isomer, unassigned) [Example 102, enantiomer 2]")
"6.00 to 7.00"
>>> value("N#Cc1nc2c(s1)[C@@H](Nc1ccc3[nH]nc(-c4cnco4)c3c1)CCC2 (single isomer, unassigned) [Example 47, enantiomer 2]")
"> 7.00"

Report pIC50 for COc1n[nH]c2ccc(O[C@H]3CCCc4cc(C#N)c(Cl)nc43)cc12 (single isomer, unassigned) [186, enantiomer 1] please.
> 7.00

Name the recorded pIC50 for COc1n[nH]c2ccc(O[C@H]3CCc4cc(C#N)c(Br)nc43)cc12 (single isomer, unassigned) [187, enantiomer 2] .
6.00 to 7.00

Item under review: N#Cc1ccc2c(c1)CC[C@@H]2Oc1ccc2[nH]nc(C3CC3)c2c1 (single isomer, unassigned) [Example 124, enantiomer 2] . Reported pIC50?
6.00 to 7.00

Could you tell me which pIC50 is on file for C[C@H]1CCc2cc(C#N)ccc2[C@H]1Nc1ccc2[nH]nc(-c3cnco3)c2c1 (single isomer, unassigned) [Example 173, enantiomer 2] ?
> 7.00

Using the record for N#Cc1ccc2c(c1)CCC[C@@H]2Oc1ccc2[nH]nc(-c3cnco3)c2c1 (single isomer, unassigned) [Example 18, enantiomer 1] , report its pIC50.
> 7.00

Need pIC50 of N#Cc1cnc2c(c1)CCC[C@@H]2Oc1ccc2[nH]nc(-c3cnccn3)c2c1 (single isomer, unassigned) [Example 161, enantiomer 1] , thanks.
> 7.00

Recorded pIC50 for N#Cc1ccc2c(c1)CC[C@@H]2Nc1ccc2[nH]nc(-c3ccoc3)c2c1 (single isomer, unassigned) [Example 11, enantiomer 1] , please?
> 7.00

Consider the compound Cn1cc(-c2n[nH]c3ccc(N[C@H]4CCCc5cc(C#N)ccc54)cc23)ccc1=O (single isomer, unassigned) and give its measured pIC50.
> 7.00

Give its pIC50 value. Item: N#Cc1cc2c(nc1Cl)[C@@H](Oc1ccc3[nH]nc(-c4cnco4)c3c1)CCC2 (single isomer, unassigned) [177, enantiomer 1]
> 7.00

If you can, please state the reported pIC50 value of N#Cc1ccc2c(c1)CCC[C@@H]2Nc1ccc2[nH]nc(/C=C/c3ccccc3)c2c1 (single isomer, unassigned) .
> 7.00

Dear colleague, I am looking for the recorded pIC50 of the following compound: CN(c1ccc2[nH]nc(-c3cnco3)c2c1)[C@H]1CCc2cc(C#N)ccc21 (single isomer, unassigned) [Example 111, enantiomer 2]
> 7.00

I am curious: what pIC50 value has been reported for CC1(C)C[C@H](Nc2ccc3[nH]nc(-c4cnco4)c3c2)c2ccc(C#N)cc21 (single isomer, unassigned) [Example 105, enantiomer 2] ?
> 7.00

Can you look up the measured pIC50 of CC1(C)Cc2cc(C#N)cnc2[C@H]1Nc1ccc2[nH]nc(-c3cnco3)c2c1 (single isomer, unassigned) [Example 172, enantiomer 2] for me?
> 7.00

What does the data say about its pIC50? Entry: C[C@H]1CCc2cc(C#N)ccc2[C@H]1Oc1ccc2[nH]nc(-c3cnco3)c2c1 (single isomer, unassigned) [175, enantiomer 2]
> 7.00
